- METHOD_SUMMARY: clinical
- CONDITION_INFO: human, in vivo, iv, Cmax II dose
MEASURED_PROPERTY: Cmax

Cmax measured on CN[C@H]1C(=O)N[C@@H]2Cc3ccc(cc3)Oc3cc4cc(c3O[C@@H]3O[C@H](C(=O)O)[C@@H](O)[C@H](O)[C@H]3NC(=O)CCCCCCCCC(C)C)Oc3ccc(cc3Cl)[C@@H](O)[C@@H]3NC(=O)[C@H](NC(=O)[C@@H]4NC(=O)[C@@H](NC2=O)c2cc(cc(O)c2Cl)Oc2cc1ccc2O)c1ccc(O)c(c1)-c1c(O[C@H]2O[C@H](CO)[C@@H](O)[C@H](O)[C@@H]2O)cc(O)cc1[C@@H](C(=O)NCCCN(C)C)NC3=O [DBV, Dalbavancin] = 337 µg/mL
